target.desc: KRAS G12D (Homo sapiens, UniProt P01116, G12D)
Sequence (P01116 1-169 isoform P01116-2 G12D): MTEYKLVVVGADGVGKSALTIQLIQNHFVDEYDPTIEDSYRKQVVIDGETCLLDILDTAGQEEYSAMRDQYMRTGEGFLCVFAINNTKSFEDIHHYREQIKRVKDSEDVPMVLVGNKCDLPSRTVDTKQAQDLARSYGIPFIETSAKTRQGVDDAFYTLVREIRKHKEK
assay.text: In-vitro RAS-RAF binding assay (RRB), HTRF/FRET
Assay type: biochemical
Parameters: Biotinylated KRAS protein amino acids 1-169 (produced at Erasca); made in house
measurement.parameters: Table 2, average of multiple runs of each compound; read-out: Inhibition of RAS-RAF Binding (in-vitro) KRAS (G12D) IC50
For each of the compounds below, state its IC50.
Note: unit µM is implicit; provide only the numeric part.

I am curious: what IC50 value has been reported for C#Cc1c(F)ccc2cc(O)cc(-c3ncc4c(N5CC6CCC(C5)N6)nc(OC[C@@H]5CCCN5CCCOCCC(=O)N[C@H](C(=O)N5C[C@H](O)C[C@H]5C(=O)N[C@@H](C)c5ccc(-c6c(F)c(F)c(F)c(F)c6F)cc5)C(C)(C)C)nc4c3F)c12 ? 0.00752

# repeat for C#Cc1c(F)ccc2cc(O)cc(-c3ncc4c(N5CC6CCC(C5)N6)nc(OCCN5CCC6(CC5)CN(c5cc([C@H](C(=O)N7C[C@H](O)C[C@H]7C(=O)N[C@@H](C)c7ccc(-c8c(F)cc(F)cc8F)cc7)C(C)C)on5)C6)nc4c3F)c12 0.00985

# repeat for Cc1ccccc1-c1ccc([C@H](C)NC(=O)[C@@H]2C[C@@H](O)CN2C(=O)[C@@H](NC(=O)CCOCCCN2CCC[C@H]2COc2nc(N3CC4CCC(C3)N4)c3cc(Cl)c(-c4ccc(F)c5sc(N)c(C#N)c45)c(F)c3n2)C(C)(C)C)cc1 0.012

# repeat for Cc1ncsc1-c1ccc([C@H](C)NC(=O)[C@@H]2C[C@@H](O)CN2C(=O)[C@@H](NC(=O)CCCCN2CCC[C@H]2COc2nc(N3CC4CCC(C3)N4)c3cc(Cl)c(-c4ccc(F)c5sc(N)c(C#N)c45)c(F)c3n2)C(C)(C)C)cc1 [Example 89] 0.0152
